Attribution: patent US20220088146A1

target: hMC1r (Homo sapiens, UniProt Q01726); test: Assay for agonist activity: cAMP accumulation in HBL melanoma cells; type: cell-based; set-up: endogenous in cells; host or cells: HBL human melanoma cells; conditions: HBL, compared to NDP-α-MSH as 100%, read-out: MC-1 Emax (average; cAMP HBL)
Sequence (Q01726 whole entry): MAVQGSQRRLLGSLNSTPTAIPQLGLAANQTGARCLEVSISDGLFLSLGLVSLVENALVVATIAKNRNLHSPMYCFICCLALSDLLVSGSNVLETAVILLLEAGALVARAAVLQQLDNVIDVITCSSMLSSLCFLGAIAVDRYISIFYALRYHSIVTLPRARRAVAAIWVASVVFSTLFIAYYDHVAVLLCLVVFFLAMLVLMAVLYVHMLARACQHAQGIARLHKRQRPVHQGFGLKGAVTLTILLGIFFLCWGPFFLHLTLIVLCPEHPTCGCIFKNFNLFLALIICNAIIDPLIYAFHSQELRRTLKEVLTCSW
ENDPOINT LABEL: Emax (%)
Field: numeric (%). Do not append units.

Give the measured Emax of N=C(N)NCCC[C@@H]1NC(=O)[C@@H](Cc2ccccc2)NC(=O)[C@H](Cc2c[nH]cn2)NC(=O)[C@@H](NC(=O)CC2CCCC2)CCC(=O)NCC[C@@H](C(=O)N[C@@H](Cc2c[nH]c3ccccc23)C(N)=O)NC1=O [Example 9.21] .
83

We now examine a further compound.
Give the measured Emax of CC(=O)N[C@@H](Cc1ccccc1)C(=O)N[C@H]1CCC(=O)NCC[C@@H](C(=O)N[C@@H](Cc2c[nH]c3ccccc23)C(N)=O)NC(=O)[C@H](CCCNC(=N)N)NC(=O)[C@@H](Cc2ccccc2)NC(=O)[C@H](Cc2c[nH]cn2)NC1=O [Example 9.13] .
75

* * *

This section presents compounds with their documented Emax values.
molecular target: hMC1r (Homo sapiens, UniProt Q01726); assay: Assay for agonist activity: cAMP accumulation in HBL melanoma cells; format: cell-based; parameters: endogenous in cells; host or cells: HBL human melanoma cells; settings: HBL, compared to NDP-α-MSH as 100%, read-out: MC-1 Emax (average; cAMP HBL)
Numbered stars: 1 amine (or outer) side, 2 acyl side, 3 side chain; on linkers, the order of the positions; unused ones are H or OH. Bridge positions count the residues as written; N and C are the ends. Square brackets hold non-standard residues; d marks the D form. Peptide text beside a SMILES is read from it. dPhe(4-Me) = Cc1ccc(C[C@@H](N)C(=O)O)cc1; dPhe(2-F) = N[C@H](Cc1ccccc1F)C(=O)O; Suc = O=C(CCC(=O)[*:2])[*:1]; Nle = CCCC[C@H](N)C(=O)O; Orn = NCCC[C@H](N)C(=O)O; Dab = NCC[C@H](N)C(=O)O
# answer = value followed by unit

Recorded results for 6 compounds are shown here.
Emax of N=C(N)NCCC[C@@H]1NC(=O)[C@@H](Cc2ccccc2)NC(=O)[C@H](Cc2c[nH]cn2)NC(=O)[C@@H](NC(=O)C2CC2)CCC(=O)NCC[C@@H](C(=O)N[C@@H](Cc2c[nH]c3ccccc23)C(N)=O)NC1=O on hMC1r (Homo sapiens, UniProt Q01726)?
83%

Follow-up entry: CCCC[C@H](NC(C)=O)C(=O)N[C@H]1CCC(=O)NCC[C@@H](C(N)=O)NC(=O)[C@H](CCCNC(=N)N)NC(=O)[C@@H](Cc2ccccc2)NC(=O)[C@@H]2CCCN2C1=O
102%

Follow-up entry: CCCC[C@H](NC(C)=O)C(=O)N[C@H]1CCC(=O)NCC[C@@H](C(N)=O)NC(=O)[C@H](CCCNC(=N)N)NC(=O)[C@@H](Cc2ccccc2F)NC(=O)[C@H](CCCN)NC1=O [Example 9.60] (Ac-[Nle]E[Orn][dPhe(2-F)]R[Dab]-NH2; lactam 2-6)
95%

Follow-up entry: CCCC[C@H](NC(C)=O)C(=O)N[C@H]1CCC(=O)NCC[C@@H](C(N)=O)NC(=O)[C@H](CCCNC(=N)N)NC(=O)[C@@H](Cc2ccc(C)cc2)NC(=O)[C@H](CCCN)NC1=O [Example 9.63] (Ac-[Nle]E[Orn][dPhe(4-Me)]R[Dab]-NH2; lactam 2-6)
96%

Follow-up entry: CCCC[C@H](NC(C)=O)C(=O)N[C@H]1CCC(=O)NCC[C@@H](C(N)=O)NC(=O)[C@H](CCCNC(=N)N)NC(=O)[C@@H](Cc2ccc(OC)cc2)NC(=O)[C@H](CCCN)NC1=O [Example 9.64] (Ac-[Nle]E[Orn][dY](Me)R[Dab]-NH2; lactam 2-6)
99%

Follow-up entry: N=C(N)NCCC[C@@H]1NC(=O)[C@@H](Cc2ccccc2)NC(=O)[C@H](Cc2c[nH]cn2)NC(=O)CCC(=O)NCC[C@@H](C(=O)N[C@@H](Cc2c[nH]c3ccccc23)C(N)=O)NC1=O [Example 9.14, cyclo(Suc-His-Phe-Arg-Dab)-Trp-NH2] (H[dF]R[Dab]W-NH2; linker N-4 via Suc)
80%

We now examine a further compound.
Emax of N=C(N)NCCC[C@@H]1NC(=O)[C@@H](Cc2ccccc2)NC(=O)[C@H](Cc2c[nH]cn2)NC(=O)[C@@H](NC(=O)C2CCCCC2)CCC(=O)NCC[C@@H](C(=O)N[C@@H](Cc2c[nH]c3ccccc23)C(N)=O)NC1=O on hMC1r (Homo sapiens, UniProt Q01726)?
79%

* * *

This section presents compounds with their documented pKi values.
target: MC4r (Homo sapiens); test: Competitive inhibition binding assay using [I125]-NDP-α-MSH, hMC4r membranes; conditions: human recombinant MC4r, HEK-293 membranes, read-out: MC-4 Ki (average)
Sequence (P32245 whole entry): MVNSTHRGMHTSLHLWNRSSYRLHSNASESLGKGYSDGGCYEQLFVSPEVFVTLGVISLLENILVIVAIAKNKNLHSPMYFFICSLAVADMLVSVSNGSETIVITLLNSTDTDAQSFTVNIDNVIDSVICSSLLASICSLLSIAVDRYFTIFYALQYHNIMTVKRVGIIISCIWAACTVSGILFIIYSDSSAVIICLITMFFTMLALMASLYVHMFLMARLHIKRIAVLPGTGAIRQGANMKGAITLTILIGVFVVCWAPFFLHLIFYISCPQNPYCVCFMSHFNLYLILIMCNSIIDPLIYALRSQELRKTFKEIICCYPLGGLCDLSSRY
Units for pKi: none; it is -log10 of a concentration expressed in mol/L.

Recorded results for 3 compounds are shown here.
Give the measured pKi of CCCC[C@H](NC(C)=O)C(=O)N[C@H]1CCC(=O)NC[C@@H](C(=O)N[C@@H](Cc2c[nH]c3ccccc23)C(C)=O)NC(=O)[C@H](CCCNC(=N)N)NC(=O)[C@@H](Cc2ccccc2)NC(=O)[C@H](Cc2c[nH]cn2)NC1=O [Example 9.26] .
5.33

Follow-up entry: CCCC[C@H](NC(C)=O)C(=O)N[C@H]1CCC(=O)NC[C@@H](C(=O)N[C@@H](Cc2c[nH]c3ccccc23)C(N)=O)NC(=O)[C@H](CCCNC(=N)N)NC(=O)[C@@H](Cc2ccccc2)NC(=O)[C@H](Cc2c[nH]cn2)NC1=O [Example 9.3]
6.29

Follow-up entry: CCCC[C@H](NC(C)=O)C(=O)N[C@H]1CNC(=O)CCC(=O)NCC[C@@H](C(=O)N[C@@H](Cc2c[nH]c3ccccc23)C(N)=O)NC(=O)[C@H](CCCNC(=N)N)NC(=O)[C@@H](Cc2ccccc2)NC(=O)[C@H](Cc2c[nH]cn2)NC1=O [Example 9.43]
6.07

---
Give the measured pKi of CCCCC(NC(C)=O)C(=O)N[C@H]1CCC(=O)NCC[C@@H](C(=O)N[C@@H](CCCCN)C(N)=O)NC(=O)[C@H](CCCNC(=N)N)NC(=O)[C@@H](Cc2ccccc2)NC(=O)[C@H](Cc2c[nH]cn2)NC1=O (stereo partly shown) [Example 9.52] .
5.13

* * *

This section presents compounds with their documented Emax values.
biological target: hMC1r (Homo sapiens, UniProt Q01726); assay: Assay for agonist activity: cAMP accumulation in HBL melanoma cells; assay type: cell-based; set-up: endogenous in cells; host or cells: HBL human melanoma cells; details: HBL, compared to NDP-α-MSH as 100%, read-out: MC-1 Emax (average; cAMP HBL)
Bridge positions count the residues as written; N and C are the ends. Square brackets hold non-standard residues; d marks the D form. Peptide text beside a SMILES is read from it. Nle = CCCC[C@H](N)C(=O)O; Dab = NCC[C@H](N)C(=O)O
Field: numeric (%). Do not append units.

Emax of CC(=O)N[C@H](Cc1ccccc1)C(=O)N[C@H]1CCC(=O)NCC[C@@H](C(=O)N[C@@H](Cc2c[nH]c3ccccc23)C(N)=O)NC(=O)[C@H](CCCNC(=N)N)NC(=O)[C@@H](Cc2ccccc2)NC(=O)[C@H](Cc2c[nH]cn2)NC1=O on hMC1r (Homo sapiens, UniProt Q01726)?
75

We now examine a further compound.
Emax of CCCC[C@H](NC(C)=O)C(=O)N[C@H]1CCC(=O)NCC[C@@H](C(=O)N[C@@H](C)C(N)=O)NC(=O)[C@H](CCCNC(=N)N)NC(=O)[C@@H](Cc2ccccc2)NC(=O)[C@H](Cc2c[nH]cn2)NC1=O [Example 9.25] (Ac-[Nle]EH[dF]R[Dab]A-NH2; lactam 2-6) on hMC1r (Homo sapiens, UniProt Q01726)?
97

* * *

This section presents compounds with their documented Emax values.
molecular target: hMC1r (Homo sapiens, UniProt Q01726); experiment: Assay for agonist activity: cAMP accumulation in HBL melanoma cells; assay type: cell-based; parameters: endogenous in cells; host or cells: HBL human melanoma cells; conditions: HBL, compared to NDP-α-MSH as 100%, read-out: MC-1 Emax (average; cAMP HBL)
# answer = value followed by unit

Recorded results for 2 compounds are shown here.
Give the measured Emax of CCCC[C@H](NC(C)=O)C(=O)N[C@H]1CCC(=O)NCCC(C(=O)N[C@@H](Cc2c[nH]c3ccccc23)C(N)=O)NC(=O)[C@H](C)NC(=O)[C@@H](Cc2ccccc2)NC(=O)[C@H](Cc2c[nH]cn2)NC1=O (stereo partly shown) .
72%

Follow-up entry: CCCC[C@H](NC(C)=O)C(=O)N[C@H]1CCC(=O)NCCCC[C@@H](C(=O)N[C@@H](Cc2c[nH]c3ccccc23)C(N)=O)NC(=O)[C@H](CCCNC(=N)N)NC(=O)[C@@H](Cc2ccccc2)NC(=O)[C@H](Cc2c[nH]cn2)NC1=O
97%

---
Give the measured Emax of CCCC[C@H](NC(C)=O)C(=O)N[C@H]1CNC(=O)CCC(=O)NC[C@@H](C(=O)N[C@@H](Cc2c[nH]c3ccccc23)C(N)=O)NC(=O)[C@H](CCCNC(=N)N)NC(=O)[C@@H](Cc2ccccc2)NC(=O)[C@H](Cc2c[nH]cn2)NC1=O .
70%

Follow-up entry: CCCCC(NC(C)=O)C(=O)N[C@H]1CCC(=O)NCC[C@@H](C(N)=O)NC(=O)[C@H](C)NC(=O)[C@@H](Cc2ccccc2)NC(=O)[C@H](Cc2c[nH]cn2)NC1=O (stereo partly shown)
73%
